- System: HUVEC (normal endothelial) cells
- assay-comment: MTT cytotoxicity assay, HUVEC
- Format: cell-based
- experimental-context: Homo sapiens, 48 h incubation, average (SD) of three experiments, read-out: IC50 HUVEC
Criterion: IC50 strictly less than 4 µM. Met: Yes. Not met: No.

Input line: Strictly below 4 µM: is that where IC50 of O=C1C2C(C(=O)N1CC(O)CN1CCCCC1)C1(c3ccccc3)CC2(c2ccccc2)C(c2ccccc2)=C1c1ccccc1 (stereo not drawn) sits?
Output line: Yes

Input line: Strictly below 4 µM: is that where IC50 of O=C1C2C(C(=O)N1CC(O)CN1CCOCC1)C1(c3ccccc3)CC2(c2ccccc2)C(c2ccccc2)=C1c1ccccc1 (stereo not drawn) sits?
Output line: No

Input line: Strictly below 4 µM: is that where IC50 of CCN(CC)CC(O)CN1C(=O)C2C(C1=O)C1(c3ccccc3)CC2(c2ccccc2)C(c2ccccc2)=C1c1ccccc1 (stereo not drawn) sits?
Output line: Yes

Input line: Strictly below 4 µM: is that where IC50 of CCCCN(CCCC)CC(O)CN1C(=O)C2C(C1=O)C1(c3ccccc3)CC2(c2ccccc2)C(c2ccccc2)=C1c1ccccc1 (stereo not drawn) sits?
Output line: No

Input line: Strictly below 4 µM: is that where IC50 of CC12C(=O)C(C)(C(c3ccccc3)=C1c1ccccc1)C1C(=O)N(CCO)C(=O)C12 (stereo not drawn) sits?
Output line: No

Input line: Strictly below 4 µM: is that where IC50 of CCC12C(=O)C(CC)(C(c3ccccc3)=C1c1ccccc1)C1C(=O)N(CC(O)CNC(C)(C)C)C(=O)C12 (stereo not drawn) sits?
Output line: Yes

Input line: Strictly below 4 µM: is that where IC50 of CCN(CC)CC(O)CN1C(=O)C2C(C1=O)C1(CC)C(=O)C2(CC)C(c2ccccc2)=C1c1ccccc1 (stereo not drawn) sits?
Output line: Yes

Input line: Strictly below 4 µM: is that where IC50 of CCN(CC)CC(O)CN1C(=O)C2C(C1=O)C1(C)C(=O)C2(C)C(c2ccccc2)=C1c1ccccc1 (stereo not drawn) sits?
Output line: No

Input line: Strictly below 4 µM: is that where IC50 of CCC12C(=O)C(CC)(C(c3ccccc3)=C1c1ccccc1)C1C(=O)N(CC(O)CN3CCCCC3)C(=O)C12 (stereo not drawn) sits?
Output line: Yes

Input line: Strictly below 4 µM: is that where IC50 of CC(C)(C)NCC(O)CN1C(=O)C2C(C1=O)C1(C)C(=O)C2(C)C(c2ccccc2)=C1c1ccccc1 (stereo not drawn) sits?
Output line: No

Input line: Strictly below 4 µM: is that where IC50 of CC12C(=O)C(C)(C(c3ccccc3)=C1c1ccccc1)C1C(=O)N(CC(O)CN3CCCCC3)C(=O)C12 (stereo not drawn) sits?
Output line: No

Input line: Strictly below 4 µM: is that where IC50 of CC12C(=O)C(C)(C(c3ccccc3)=C1c1ccccc1)C1C(=O)N(CCN3CCCCC3)C(=O)C12 (stereo not drawn) sits?
Output line: No

Input line: Strictly below 4 µM: is that where IC50 of CCC12C(=O)C(CC)(C(c3ccccc3)=C1c1ccccc1)C1C(=O)N(CCN3CCCCC3)C(=O)C12 (stereo not drawn) sits?
Output line: No

Input line: Strictly below 4 µM: is that where IC50 of CCNCC(O)CN1C(=O)C2C(C1=O)C1(C)C(=O)C2(C)C(c2ccccc2)=C1c1ccccc1 (stereo not drawn) sits?
Output line: No
